The reported numbers originate from patent US9554979B2.

assay: Apigenin premixtures with various solubilizing agents, solubility; format: physicochemical; settings: 1-dimethylamino-2-propanol/ethanolamine/TEA, organic solvent or mixture, thermodynamic from solid, in 1-Dimethylamino-2-propanol/Ethanolamine/TEA, room temp, 300-500 rpm
endpoint.name: solubility (mg/mL)
# unit: mg/mL | format: bare number

Task: # lookup: solubility of O=c1cc(-c2ccc(O)cc2)oc2cc(O)cc(O)c12 [apigenin]
Result: 16.5

----------
test: Apigenin premixtures with various solubilizing agents, solubility; type: physicochemical; conditions: N-methylformamide, 101 °C, organic solvent or mixture, thermodynamic from solid, in N-Methylformamide, 400 rpm
endpoint.name: solubility (mg/mL)
# unit: mg/mL | format: bare number

Task: # lookup: solubility of O=c1cc(-c2ccc(O)cc2)oc2cc(O)cc(O)c12
Result: 13.7

----------
experiment: Apigenin premixtures with various solubilizing agents, solubility; type: physicochemical; conditions: ethanolamine/TEA, 29 °C, organic solvent or mixture, thermodynamic from solid, in Ethanolamine/TEA, 300-600 rpm
endpoint.name: solubility
Write the numeric value and append its unit.

Task: # lookup: solubility of O=c1cc(-c2ccc(O)cc2)oc2cc(O)cc(O)c12
Result: 18 mg/mL

----------
assay: Apigenin premixtures with various solubilizing agents, solubility; type: physicochemical; conditions: 1-dimethylamino-2-propanol/TEA, organic solvent or mixture, thermodynamic from solid, in 1-Dimethylamino-2-propanol/TEA, room temp, 300-810 rpm
endpoint.name: solubility (mg/mL)
# unit: mg/mL | format: bare number

Task: # lookup: solubility of O=c1cc(-c2ccc(O)cc2)oc2cc(O)cc(O)c12
Result: 17.3

----------
assay: Apigenin premixtures with various solubilizing agents, solubility; type: physicochemical; conditions: TEA (triethanolamine), 169 °C, organic solvent or mixture, thermodynamic from solid, in TEA, 450 rpm (synthetic apigenin)
endpoint.name: solubility
Write the numeric value and append its unit.

Task: # lookup: solubility of O=c1cc(-c2ccc(O)cc2)oc2cc(O)cc(O)c12 [apigenin]
Result: 14.7 mg/mL
